Data provenance: ChEMBL document CHEMBL5338756

pIC50: −log10 of the molar value.
UniProt:P22303 measurements of pIC50, listed per entry.
Sequence (P22303 whole entry): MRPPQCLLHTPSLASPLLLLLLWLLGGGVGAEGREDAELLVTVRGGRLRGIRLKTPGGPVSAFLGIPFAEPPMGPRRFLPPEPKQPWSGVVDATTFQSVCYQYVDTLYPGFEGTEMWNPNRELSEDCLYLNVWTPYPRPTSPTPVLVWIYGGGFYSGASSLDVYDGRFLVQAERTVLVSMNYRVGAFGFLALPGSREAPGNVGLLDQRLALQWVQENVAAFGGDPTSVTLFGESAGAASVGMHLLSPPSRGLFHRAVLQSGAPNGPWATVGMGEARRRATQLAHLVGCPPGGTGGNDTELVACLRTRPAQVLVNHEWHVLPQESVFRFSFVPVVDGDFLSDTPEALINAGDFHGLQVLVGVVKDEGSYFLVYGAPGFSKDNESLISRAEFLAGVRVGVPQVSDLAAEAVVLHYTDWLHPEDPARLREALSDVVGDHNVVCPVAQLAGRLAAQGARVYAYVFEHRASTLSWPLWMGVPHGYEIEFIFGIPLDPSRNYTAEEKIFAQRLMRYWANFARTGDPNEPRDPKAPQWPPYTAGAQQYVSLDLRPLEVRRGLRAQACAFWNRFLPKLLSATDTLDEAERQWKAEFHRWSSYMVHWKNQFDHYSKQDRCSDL

Solved cases below.
CCOc1ccc(Cc2nc3cc(OC(=O)N(C)C)ccc3n2CCC(C)C)cc1; < 4.60
CCOc1ccc(Cc2nc3cc(OC(=O)N(C)CC)ccc3n2CCC(C)C)cc1; < 4.60
CCN(CC)C(=O)c1ccc2c(c1)nc(Cc1ccc(OC(=O)NC3CC3)cc1)n2CCC(C)C; < 4.60
CCN(CC)C(=O)Oc1ccc(Cc2nc3cc(C(=O)N(CC)CC)ccc3n2CCC(C)C)cc1; < 4.60

Attention now shifts to the item below.
Challenge: Form: Entry = `CCN(CC)C(=O)c1ccc2c(c1)nc(Cc1ccc(OC(=O)N(C)C)cc1)n2CCC(C)C` | System = UniProt:P22303 | pIC50 = ____
Response given: 5.06
